Assign inhibition to each entry below.
Target: Hexose transporter 1 (Plasmodium falciparum) (UniProt O97467)
Assay: ST_JUDE_LEISH: Cytotoxicity at 2uM final concentration against transgenic Leishmania Mexicana promastigotes LmPfHT that are glucose transport deficient and complemented with the Plasmodium falciparum hexose transporter. Activity is measured by DNA content using SYBR green in vitro
Type: functional
Return type: number; implicit unit %.

inhibition on Hexose transporter 1 (Plasmodium falciparum) (UniProt O97467) for Cc1noc(C)c1S(=O)(=O)N(C)Cc1ccc(-c2ccc(Cl)cc2)o1 is 1.24

inhibition on Hexose transporter 1 (Plasmodium falciparum) (UniProt O97467) for CC(C)Cn1c(Sc2ccc(C#N)c([N+](=O)[O-])c2)nnc1-c1ccccc1Cl is 4.02

inhibition on Hexose transporter 1 (Plasmodium falciparum) (UniProt O97467) for Cc1cccc2nc(-c3ccc(-c4cccc(CNCCc5ccncc5)c4)s3)[nH]c12 is 1.49

inhibition on Hexose transporter 1 (Plasmodium falciparum) (UniProt O97467) for O=C(Nc1cccc(-c2cccc(CN3CCCC3)c2)c1)c1cccc(Cl)c1 is 2.72

inhibition on Hexose transporter 1 (Plasmodium falciparum) (UniProt O97467) for CCCc1cnc2nc(N)nc(N)c2c1C is -0.62

inhibition on Hexose transporter 1 (Plasmodium falciparum) (UniProt O97467) for Cc1ccc(NC(=O)c2ccc(CN3CCCN(CC4CCCCC4)CC3)cc2)cc1C is 7.13

inhibition on Hexose transporter 1 (Plasmodium falciparum) (UniProt O97467) for NCCC(=O)Nc1ccc(-c2cnc3[nH]cc(-c4ccc(C(=O)O)cc4)c3c2)cn1 is 1.74

inhibition on Hexose transporter 1 (Plasmodium falciparum) (UniProt O97467) for CCOc1ccc(C(=O)Nc2cc(Br)c3c(c2)CNCC3)cc1Cl is 2.23

inhibition on Hexose transporter 1 (Plasmodium falciparum) (UniProt O97467) for COc1cc(C=NN=c2cc(C)[nH]c3ccccc23)cc(OC)c1OC is 4.95

inhibition on Hexose transporter 1 (Plasmodium falciparum) (UniProt O97467) for Cc1cc(C)c(NC(=O)NC2CCN(CCCCCNC(=O)/C=C/c3ccc(Cl)c(Cl)c3)CC2)c(C)c1 is 2.53

inhibition on Hexose transporter 1 (Plasmodium falciparum) (UniProt O97467) for O=C(Nc1ccccc1Oc1ccccc1)NC1CCN(c2ccnc3cc(Cl)ccc23)C1 (stereo not drawn) is 4.63

inhibition on Hexose transporter 1 (Plasmodium falciparum) (UniProt O97467) for O=C(Nc1ccc2ccccc2c1)N1CCC(NCc2cccc([N+](=O)[O-])c2)CC1 is 1.61

inhibition on Hexose transporter 1 (Plasmodium falciparum) (UniProt O97467) for O=C(Nc1ccccc1)N(Cc1ccc(-c2cccc(CNC3CCCC3)c2)cc1)C1CCN(Cc2ccccc2)CC1 is 1.4

inhibition on Hexose transporter 1 (Plasmodium falciparum) (UniProt O97467) for Cc1cc(NCCc2ccccc2)nc(NC(=N)Nc2ccc(Cl)cc2)n1 is 2.1

inhibition on Hexose transporter 1 (Plasmodium falciparum) (UniProt O97467) for Cc1cc(NC(=O)Nc2ccc3nccc(N4CCN(C)CC4)c3c2)ccc1Br is 1.48

inhibition on Hexose transporter 1 (Plasmodium falciparum) (UniProt O97467) for Cc1cc(NC(=O)c2ccco2)ccc1OC1CCN(Cc2ccccc2)CC1 is 4.72

inhibition on Hexose transporter 1 (Plasmodium falciparum) (UniProt O97467) for Cc1cc(N[C@@H](Cc2ccccc2)C(=O)NC2CCCC2)nc(NCCOc2ccccc2)n1 is -1.48

inhibition on Hexose transporter 1 (Plasmodium falciparum) (UniProt O97467) for Cc1ccc(-c2nc(NC(=O)Nc3ccc(C(F)(F)F)cc3)sc2C)cc1Cl is 1.68

inhibition on Hexose transporter 1 (Plasmodium falciparum) (UniProt O97467) for Nc1ncc(-c2cn[nH]c2)cc1-c1nc2ccc(F)cc2[nH]1 is 3.29

inhibition on Hexose transporter 1 (Plasmodium falciparum) (UniProt O97467) for O=C1C(c2ccccc2)=C(Nc2cccc([N+](=O)[O-])c2)c2ccccc21 is 3.72

inhibition on Hexose transporter 1 (Plasmodium falciparum) (UniProt O97467) for CNC(=O)COc1cc(C)c(C2CCN(CCCCNC(=O)c3ccc(-c4ccc(C(F)(F)F)cc4)cc3)CC2)cc1C is 2.32

inhibition on Hexose transporter 1 (Plasmodium falciparum) (UniProt O97467) for N#Cc1ccc(N/C(=N\c2ccccc2Cl)NC2CCN(Cc3ccccc3)CC2)c(O)c1 is 2.49

inhibition on Hexose transporter 1 (Plasmodium falciparum) (UniProt O97467) for Cc1cc(N[C@@H](CC(C)C)C(=O)NCCc2ccccc2)nc(NCC2CCCCC2)n1 is 6.23

inhibition on Hexose transporter 1 (Plasmodium falciparum) (UniProt O97467) for O=C(Nc1ccc(Cl)c(C(F)(F)F)c1)c1ccc(C(=O)Nc2ccc(Cl)c(C(F)(F)F)c2)cc1 is 1.08

inhibition on Hexose transporter 1 (Plasmodium falciparum) (UniProt O97467) for COC(=O)c1ccc2nc(-c3cc(OC)c(O)c(C(=O)NC4CCN(Cc5ccccc5)CC4)c3)[nH]c2c1 is 5.32

inhibition on Hexose transporter 1 (Plasmodium falciparum) (UniProt O97467) for CCc1cn2c3c(cc(C(=O)N[C@@H](Cc4cccc(Cl)c4)[C@H](O)CNC4CCCCC4)cc13)N(C)S(=O)(=O)CC2 is 1.09

inhibition on Hexose transporter 1 (Plasmodium falciparum) (UniProt O97467) for COc1cccc(-c2cc(C(F)(F)F)n3ncc(C(=O)Nc4cc(Cl)ccc4O)c3n2)c1 is 1.53

inhibition on Hexose transporter 1 (Plasmodium falciparum) (UniProt O97467) for COC(=O)C1=C(C)NC2=C(C(=O)CC(c3ccc(OC)c(OC)c3)C2)C1c1cccc(O)c1 (stereo not drawn) is 3.84

inhibition on Hexose transporter 1 (Plasmodium falciparum) (UniProt O97467) for Oc1cc(NCc2ccccc2NCc2ccc(Cl)c(Cl)c2)nc2ccccc12 is 3.68

inhibition on Hexose transporter 1 (Plasmodium falciparum) (UniProt O97467) for O=C(Nc1ccc(OC2CCN(Cc3ccc(F)cc3)CC2)c(Cl)c1)c1ccco1 is 1.1

inhibition on Hexose transporter 1 (Plasmodium falciparum) (UniProt O97467) for Cc1cccc2nc(-c3cccc(-c4ccc(NC(=O)Nc5ccc(Cl)c(Cl)c5)cc4)c3)[nH]c12 is -1.23

inhibition on Hexose transporter 1 (Plasmodium falciparum) (UniProt O97467) for COc1cc(OC)cc(C(=O)Nc2ccc(Nc3nc(C)cc(N(C)C)n3)cc2)c1 is 12.8

inhibition on Hexose transporter 1 (Plasmodium falciparum) (UniProt O97467) for COc1ccc(Cl)cc1N1CCN(CCCNC(=O)c2ccc(-c3nc4cc(Cl)c(Cl)cc4[nH]3)c(C)c2)CC1 is 0.9

inhibition on Hexose transporter 1 (Plasmodium falciparum) (UniProt O97467) for COCCNCc1nc(-c2ccc3c(Nc4ccc(F)c(O)c4)ccnc3c2)cs1 is 1.29

inhibition on Hexose transporter 1 (Plasmodium falciparum) (UniProt O97467) for FC(F)(F)c1ccc2[nH]c(-c3ccc(-c4ccc(CN5CCN(c6cnccn6)CC5)cc4)cc3)nc2c1 is 10.6

inhibition on Hexose transporter 1 (Plasmodium falciparum) (UniProt O97467) for O=S(=O)(NCCN1CCCC1)c1ccc(-c2ccc(CNCc3ccccc3)cc2)cc1F is 3.01

inhibition on Hexose transporter 1 (Plasmodium falciparum) (UniProt O97467) for CCCCn1c(N)c(N(Cc2ccco2)C(=O)C=Cc2cc(OC)c3c(c2)OCCO3)c(O)nc1=O is 1.02

inhibition on Hexose transporter 1 (Plasmodium falciparum) (UniProt O97467) for COc1ccc(CNCc2ccc(-c3ccc(-c4nc5cccc(C)c5[nH]4)cc3)cc2)cc1 is 17.2
